Quick list: relative viability per entry.
Test system: NCI-H838
Assay: relative viability (nuclei count vs DMSO), 5 days (fraction); higher = more cells survive
Details: first compound 0.1265 µM
Lab note: record just the number, no unit beside it.

C[C@@H]1CN(CC(=O)Nc2ccc3c(c2)Cc2cccc(-c4cc(=O)cc(N5CCOCC5)o4)c2S3)C[C@H](C)O1 + COc1cc2c(Oc3ccc(NC(=O)C4(C(=O)Nc5ccc(F)cc5)CC4)cc3F)ccnc2cc1OCCCN1CCOCC1 [Foretinib] (partner 0.25 µM) : 0.952

Now look at this one.
Item C[C@@H]1CN(CC(=O)Nc2ccc3c(c2)Cc2cccc(-c4cc(=O)cc(N5CCOCC5)o4)c2S3)C[C@H](C)O1 + Cc1nc(NC(=O)N2CCC[C@H]2C(N)=O)sc1-c1ccnc(C(C)(C)C(F)(F)F)c1 [Alpelisib] (partner 2 µM) has what recorded relative viability?
0.913
